system: HeLa; experiment: Antiproliferative activity against HeLa cells; assay type: functional, cell-based; details: Homo sapiens
measured-quantity: IC50 (µM)
# value in µM; strip the unit string

// solved cases for IC50 follow
{"compound-string": "CCCCO/N=C/c1c(N)ncnc1Oc1ccc2[nH]c(C)cc2c1F", "endpoint-result": 0.607}
{"compound-string": "C=CCO/N=C/c1c(N)ncnc1Oc1ccc2[nH]c(C)cc2c1F", "endpoint-result": 0.042}
{"compound-string": "CO/N=C/c1c(N)ncnc1Oc1ccc2[nH]cc(C)c2c1", "endpoint-result": 0.306}
{"compound-string": "CO/N=C/c1c(N)ncnc1Oc1ccc2cccnc2c1", "endpoint-result": 1.82}
{"compound-string": "Cc1cc2c(F)c(Oc3ncnc(N)c3/C=N/OCc3ccccc3)ccc2[nH]1", "endpoint-result": 0.266}
{"compound-string": "CO/N=C/c1c(N)ncnc1Oc1ccc2c(ccn2C)c1", "endpoint-result": 0.375}

Consider the additional compound presented here.
Tested system HeLa; IC50 recorded for COCCO/N=C/c1c(N)ncnc1Oc1ccc2[nH]c(C)cc2c1F was 0.308
